Exercise: state measured AC50 for each of the compounds provided.

Entry Clc1ccc(CCC(Cn2ccnc2)Sc2c(Cl)cccc2Cl)cc1 (centres undefined) , UniProt P03372 data, AC50 value: 20 µM

Entry CN(CCOc1ccc(CC2SC(=O)NC2=O)cc1)c1ccccn1 (centres undefined) , UniProt P03372 data, AC50 value: > 30 µM

Entry `O=c1c(O)c(-c2ccc(O)c(O)c2)oc2cc(O)cc(O)c12` , UniProt P03372 data, AC50 value: > 30 µM

Entry CC(C)(Oc1ccc(CCNC(=O)c2ccc(Cl)cc2)cc1)C(=O)O [BEZAFIBRATE] , UniProt P03372 data, AC50 value: > 10 µM

Entry CC(C(=O)O)c1ccc2oc(-c3ccc(Cl)cc3)nc2c1 (centres undefined) , UniProt P03372 data, AC50 value: > 30 µM

Entry `CCCc1cc(=O)[nH]c(=S)[nH]1` , UniProt P03372 data, AC50 value: > 10 µM

Entry `CC1=C(/C=C/C(C)=C/C=C/C(C)=C/CO)C(C)(C)CCC1` , UniProt P03372 data, AC50 value: > 30 µM

Entry `CN[C@@H](C)[C@@H](O)c1ccccc1` , UniProt P03372 data, AC50 value: > 30 µM

Entry CC(=O)c1ccc(S(=O)(=O)NC(=O)NC2CCCCC2)cc1 [ACETOHEXAMIDE] , UniProt P03372 data, AC50 value: > 10 µM

Entry CCCN1CC(NS(=O)(=O)N(CC)CC)CC2Cc3c(O)cccc3CC21 (centres undefined) [QUINAGOLIDE] , UniProt P03372 data, AC50 value: > 30 µM

Entry Cc1cccc(C)c1NC(=O)CC12CCCN1CCC2 [PILSICAINIDE] , UniProt P03372 data, AC50 value: > 30 µM

Entry `CN(C)C/C=C/C(=O)Nc1cc2c(Nc3ccc(F)c(Cl)c3)ncnc2cc1O[C@H]1CCOC1` , UniProt P03372 data, AC50 value: > 30 µM

Entry CCOC(=O)C(C)(C)Oc1ccc(Cl)cc1 [CLOFIBRATE] , UniProt P03372 data, AC50 value: > 30 µM

Entry `C=CC[N+]1([C@H]2C[C@H]3[C@@H]4CC[C@H]5C[C@H](O)[C@@H](N6CCOCC6)C[C@]5(C)[C@H]4CC[C@]3(C)[C@H]2OC(C)=O)CCCC1` , UniProt P03372 data, AC50 value: > 30 µM

Entry `CCOC(=O)C1=C(C)NC(C)=C(C(=O)OCC)C1c1ccccc1/C=C/C(=O)OC(C)(C)C` , UniProt P03372 data, AC50 value: > 30 µM

Entry `C[C@]12C=CC(=O)C=C1CC[C@@H]1[C@@H]2CC[C@]2(C)OC(=O)CC[C@@H]12` , UniProt P03372 data, AC50 value: > 10 µM

Entry `CN(C)Cc1nnc2n1-c1ccc(Cl)cc1C(c1ccccc1)=NC2` , UniProt P03372 data, AC50 value: > 10 µM

Entry CC(c1cc2ccccc2s1)N(O)C(N)=O (centres undefined) , UniProt P03372 data, AC50 value: > 30 µM

Entry `O=C1c2ccccc2C(=O)C1c1ccccc1` , UniProt P03372 data, AC50 value: > 10 µM
